target-entity: hERG (KCNH2) potassium channel (Homo sapiens, UniProt Q12809)
Sequence (Q12809 whole entry): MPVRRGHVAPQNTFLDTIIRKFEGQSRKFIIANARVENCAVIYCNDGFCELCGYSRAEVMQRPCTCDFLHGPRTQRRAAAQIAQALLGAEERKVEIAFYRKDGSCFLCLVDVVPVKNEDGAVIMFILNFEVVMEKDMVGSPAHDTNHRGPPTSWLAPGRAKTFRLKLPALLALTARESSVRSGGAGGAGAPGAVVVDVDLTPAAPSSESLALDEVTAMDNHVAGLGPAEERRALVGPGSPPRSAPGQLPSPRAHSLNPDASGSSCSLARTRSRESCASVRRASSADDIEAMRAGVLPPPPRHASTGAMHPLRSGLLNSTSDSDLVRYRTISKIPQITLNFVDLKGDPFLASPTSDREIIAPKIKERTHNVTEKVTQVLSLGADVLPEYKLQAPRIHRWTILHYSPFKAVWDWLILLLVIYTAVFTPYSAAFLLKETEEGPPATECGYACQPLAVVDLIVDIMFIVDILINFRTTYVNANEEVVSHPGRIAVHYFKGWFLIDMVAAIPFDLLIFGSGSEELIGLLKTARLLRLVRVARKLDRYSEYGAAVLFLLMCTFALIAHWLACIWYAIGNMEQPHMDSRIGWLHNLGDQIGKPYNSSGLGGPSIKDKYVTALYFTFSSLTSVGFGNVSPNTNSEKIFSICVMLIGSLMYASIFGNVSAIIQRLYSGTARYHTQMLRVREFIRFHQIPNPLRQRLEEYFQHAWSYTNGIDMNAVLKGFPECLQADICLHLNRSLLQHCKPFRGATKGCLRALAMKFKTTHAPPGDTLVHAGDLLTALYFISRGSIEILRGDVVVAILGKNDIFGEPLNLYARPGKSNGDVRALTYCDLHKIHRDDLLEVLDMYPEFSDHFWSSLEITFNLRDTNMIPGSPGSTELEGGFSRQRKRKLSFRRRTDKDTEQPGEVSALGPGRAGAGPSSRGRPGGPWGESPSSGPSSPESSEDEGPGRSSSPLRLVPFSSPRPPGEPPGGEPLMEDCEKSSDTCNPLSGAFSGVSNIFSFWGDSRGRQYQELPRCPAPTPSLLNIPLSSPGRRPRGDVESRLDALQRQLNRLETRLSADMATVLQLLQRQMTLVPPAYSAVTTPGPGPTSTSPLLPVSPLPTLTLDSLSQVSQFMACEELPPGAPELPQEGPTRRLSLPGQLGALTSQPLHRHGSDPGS
assay-method-text: in vitro
condition-set: CHO cells expressing human cloned ERG
compounds and their reported inhibition at 1 µM

Examples from the recorded data:
1) O=S(=O)(NCCCN1CCN(c2nsc3ccccc23)CC1)c1ccc(F)c(Cl)c1	36%
2) O=S(=O)(NCCCCN1CCN(c2noc3ccccc23)CC1)c1cccs1	39%
3) Cc1cccc(S(=O)(=O)NCCCN2CCN(c3noc4ccccc34)CC2)c1	8%
4) O=S(=O)(NCCCN1CCC(c2noc3cc(F)ccc23)CC1)c1ccc2cc(Cl)ccc2c1	28%
5) Cc1c(S(=O)(=O)NCCCN2CCN(c3noc4ccccc34)CC2)sc2ccc(F)cc12	15%
6) O=S(=O)(NCCCN1CCN(c2noc3ccccc23)CC1)c1cc2ccc(Cl)cc2s1	7%
7) O=S(=O)(NCCCN1CCN(c2nsc3ccccc23)CC1)c1ccc(OC(F)(F)F)cc1	50%
8) O=S(=O)(NCCCCN1CCC(c2noc3cc(F)ccc23)CC1)c1ccc2ccccc2c1	30%

[in] Provide only the value of recorded inhibition at 1 µM for Cc1c(S(=O)(=O)NCCCN2CCC(c3noc4cc(F)ccc34)CC2)sc2ccc(F)cc12
[out] 43%

[in] Provide inhibition at 1 µM value for the following compound: Cc1c(S(=O)(=O)NCCCCN2CCN(c3noc4ccccc34)CC2)sc2ccc(F)cc12
[out] 29%

[in] Let me know recorded inhibition at 1 µM for O=S(=O)(NCCCCN1CCN(c2noc3ccccc23)CC1)c1cc2ccc(Cl)cc2s1 , thanks.
[out] 15%

[in] Identify inhibition at 1 µM associated with the compound Cc1cccc(S(=O)(=O)NCCCCN2CCC(c3noc4cc(F)ccc34)CC2)c1
[out] 57%

[in] State its inhibition at 1 µM for this compound: Cc1cccc(S(=O)(=O)NCCN2CCN(c3nsc4ccccc34)CC2)c1
[out] 4%

###

target-entity: D(3) dopamine receptor (Homo sapiens, UniProt P35462)
Sequence (P35462 whole entry): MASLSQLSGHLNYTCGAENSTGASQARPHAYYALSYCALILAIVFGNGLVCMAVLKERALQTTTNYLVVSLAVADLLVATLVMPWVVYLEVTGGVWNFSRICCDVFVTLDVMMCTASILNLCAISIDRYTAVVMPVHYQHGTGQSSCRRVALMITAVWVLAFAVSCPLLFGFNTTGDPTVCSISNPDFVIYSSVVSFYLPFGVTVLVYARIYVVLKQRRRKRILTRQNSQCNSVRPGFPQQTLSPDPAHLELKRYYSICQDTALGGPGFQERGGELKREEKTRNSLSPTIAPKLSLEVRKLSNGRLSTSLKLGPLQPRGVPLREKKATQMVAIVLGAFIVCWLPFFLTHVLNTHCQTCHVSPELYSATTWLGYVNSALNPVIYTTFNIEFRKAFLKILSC
assay-method-text: Displacement of [3H]methylspiperone from human recombinant D3 receptor expressed in CHO cells
Type: cell-based
assay-endpoint: Ki (nM)
Reply numerically in nM, unit not repeated.

[in] Give a short answer stating reported Ki for O=S(=O)(NCCCCN1CCC(c2noc3cc(F)ccc23)CC1)c1cc2ccccc2s1 .
[out] 1.1

###

target-entity: UniProtKB P34969
Sequence (P34969 whole entry): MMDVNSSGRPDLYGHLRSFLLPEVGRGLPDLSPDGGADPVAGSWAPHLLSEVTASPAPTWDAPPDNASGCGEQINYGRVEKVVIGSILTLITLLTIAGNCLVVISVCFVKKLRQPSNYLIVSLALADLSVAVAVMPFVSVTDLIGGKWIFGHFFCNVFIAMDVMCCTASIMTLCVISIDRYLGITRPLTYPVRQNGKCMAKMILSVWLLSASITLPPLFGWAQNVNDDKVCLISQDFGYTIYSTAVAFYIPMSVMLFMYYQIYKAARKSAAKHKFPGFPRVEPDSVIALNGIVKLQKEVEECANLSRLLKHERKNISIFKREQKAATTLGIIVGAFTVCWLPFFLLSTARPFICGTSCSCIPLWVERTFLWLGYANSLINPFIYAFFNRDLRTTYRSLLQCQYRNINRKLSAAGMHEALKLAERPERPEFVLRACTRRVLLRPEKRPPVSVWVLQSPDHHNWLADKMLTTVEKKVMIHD
assay-method-text: Agonist activity at human 5-HT7 receptor expressed in CHO-K1 cells assessed as cAMP accumulation after 60 mins by TR-FRET immunoassay
Assay type: functional, cell-based
Calls of active or inactive are those of the source. The rule behind the calls is not given here.
assay-endpoint: Activity

1. O=S(=O)(NCCCCN1CCC(c2noc3cc(F)ccc23)CC1)c1cc2ccccc2s1	inactive
2. O=S(=O)(NCCCCN1CCC(c2noc3cc(F)ccc23)CC1)c1ccc2ccccc2c1	inactive
3. O=S(=O)(NCCCN1CCC(c2noc3cc(F)ccc23)CC1)c1ccc(F)c(Cl)c1	inactive

###

target-entity: UniProt P14416
Sequence (P14416 whole entry): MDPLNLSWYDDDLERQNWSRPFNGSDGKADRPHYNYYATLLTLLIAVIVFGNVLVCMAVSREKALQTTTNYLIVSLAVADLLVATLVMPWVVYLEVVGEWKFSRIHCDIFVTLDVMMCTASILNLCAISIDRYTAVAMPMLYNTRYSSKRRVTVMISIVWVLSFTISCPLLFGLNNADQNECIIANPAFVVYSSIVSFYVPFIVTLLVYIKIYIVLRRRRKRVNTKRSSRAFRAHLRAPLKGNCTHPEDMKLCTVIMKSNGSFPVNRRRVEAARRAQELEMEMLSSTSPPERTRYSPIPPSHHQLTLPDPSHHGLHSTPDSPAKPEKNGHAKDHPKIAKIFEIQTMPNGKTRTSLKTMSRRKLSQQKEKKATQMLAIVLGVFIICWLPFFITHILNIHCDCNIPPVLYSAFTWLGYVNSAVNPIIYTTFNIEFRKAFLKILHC
assay-method-text: biochemical
Attribute: Ki
State the answer as a number, implicitly in nM.

1. Cc1c(S(=O)(=O)NCCCCN2CCC(c3noc4cc(F)ccc34)CC2)sc2ccc(Cl)cc12	1.5

[in] # return recorded Ki for entry O=S(=O)(NCCCCN1CCN(c2noc3ccccc23)CC1)c1ccc(F)c(Cl)c1
[out] 77

###

target-entity: 5-hydroxytryptamine receptor 2A (Homo sapiens, UniProt P28223)
Sequence (P28223 whole entry): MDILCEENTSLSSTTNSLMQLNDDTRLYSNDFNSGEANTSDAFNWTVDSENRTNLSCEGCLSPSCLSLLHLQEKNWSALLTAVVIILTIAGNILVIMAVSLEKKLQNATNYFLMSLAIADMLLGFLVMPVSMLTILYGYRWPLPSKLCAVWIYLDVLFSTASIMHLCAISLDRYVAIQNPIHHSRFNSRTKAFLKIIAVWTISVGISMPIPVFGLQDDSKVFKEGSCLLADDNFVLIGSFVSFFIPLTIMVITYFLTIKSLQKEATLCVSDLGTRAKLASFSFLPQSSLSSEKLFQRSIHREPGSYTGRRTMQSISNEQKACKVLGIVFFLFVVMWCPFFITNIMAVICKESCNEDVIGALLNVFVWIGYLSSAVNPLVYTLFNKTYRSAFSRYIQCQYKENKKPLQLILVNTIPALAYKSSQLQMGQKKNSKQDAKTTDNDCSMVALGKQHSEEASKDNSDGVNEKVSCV
assay-method-text: biochemical
Format: cell-based, CHO-K1
pKi: −log10 of the molar value.
Label 1 when pKi >= 8; otherwise -1.

Use these answered entries as a reference point.
1. Cc1cccc(S(=O)(=O)NCCCN2CCC(c3noc4cc(F)ccc34)CC2)c1	1
2. O=S(=O)(NCCCCN1CCC(c2noc3cc(F)ccc23)CC1)c1ccc(Cl)c(Cl)c1	1
3. O=S(=O)(NCCCN1CCN(c2noc3ccccc23)CC1)c1ccc2cc(Cl)ccc2c1	-1
4. O=S(=O)(NCCCN1CCN(c2noc3ccccc23)CC1)c1cc2ccccc2s1	-1
5. O=S(=O)(NCCCCN1CCC(c2noc3cc(F)ccc23)CC1)c1ccc2cc(Cl)ccc2c1	1
6. Cc1cccc(S(=O)(=O)NCCCCN2CCN(c3noc4ccccc34)CC2)c1	-1

[in] Check the entry O=S(=O)(NCCCCN1CCC(c2noc3cc(F)ccc23)CC1)c1ccc(OC(F)(F)F)cc1 : does pKi equal or exceed 8?
[out] 1

[in] Can Cc1cccc(S(=O)(=O)NCCCN2CCN(c3nsc4ccccc34)CC2)c1 be said to have pKi at or above 8?
[out] 1

[in] # check: pKi of O=S(=O)(NCCCN1CCN(c2noc3ccccc23)CC1)c1ccc(Cl)c(Cl)c1 is greater than or equal to 8
[out] -1

[in] # check: pKi of O=S(=O)(NCCCN1CCC(c2noc3cc(F)ccc23)CC1)c1cccc2ccccc12 is greater than or equal to 8
[out] 1

[in] Determine whether this compound has pKi no lower than 8: O=S(=O)(NCCCN1CCC(c2noc3cc(F)ccc23)CC1)c1csc2ccccc12
[out] 1

[in] Assess whether reported pKi for O=S(=O)(NCCCN1CCN(c2noc3ccccc23)CC1)c1ccc(OC(F)(F)F)cc1 sits at 8 or higher.
[out] -1
